Target: hemagglutinin (HA) of influenza A/Hong Kong/1/68 (H3N2) (influenza A virus A/Hong Kong/1/68 (H3N2)) (UniProt Q91MA7)
Experiment: cell-based or functional assay
As shown below, each of these binders has a reported VNA IC50 value.
Give the value, in units of nM, as a plain number.

Some binders with recorded VNA IC50:
| binder | measured-attribute | unit-name | recorded-number |
| --- | --- | --- | --- |
| SD3079 (VHH) VHH: EVQLVESGGGVVQPGGSLRLSCAASISIFDIYAMDWYRQAPGKQRELVAVSFRDGSTYYADSVKGRFTISRDNSKNTLYLQMNSLRAEDTAVYYCHVSLYRDPLGVAGGLGVYWGQGTLVTVSS | VNA IC50 | nM | 503 |
| SD3030 (VHH) VHH: EVQLVESGGGLVQPGGSLRLSCAVSISIFDIYAMDWYRQAPGKQRDLVATSFRDGSTNYADSVKGRFTISRDNAKNTLYLQMNSLKPEDTAVYLCHVSLYRDPLGVAGGIGVYWGKGALVTVSS | VNA IC50 | nM | 126 |

Please turn your attention to the following entry.
Query: Recorded VNA IC50 of SD3119 (VHH) VHH: QVQLVESGGGVVQPGGSLRLSCAASISIFDIYAMDWYRQAPGKQRELVAVSFRDGSTYYADSVKGRFTISRDNSKNTLYLQMNSLRAEDTAVYYCHVSLYRDPLGVAGGIGVYWGQGTLVTVSS , please.
Result: 101
